Test system: STREPTOCOCCUS PYOGENES EES61
procedureDetails: In vitro antibacterial activity, MIC, BHI agar dilution
Format: cell-based
conditionsUsed: S. pyogenes EES61, unit assumed
Recorded MIC by entry
measurementName: MIC (µg/mL)

{"molecule": "CC[C@H]1OC(=O)[C@H](C)C(=O)[C@H](C)[C@@H](O[C@@H]2O[C@H](C)C[C@H](N(C)C)[C@H]2O)[C@](C)(OC)C[C@@H](C)C2=N[C@@H](Cc3ccccc3)CN3C(=O)O[C@@]1(C)[C@H]3[C@H]2C [Example 4]", "measurementName": "MIC", "cmp": "=", "obsValue": 0.05}
{"molecule": "CC[C@H]1OC(=O)[C@H](C)C(=O)[C@H](C)[C@@H](O[C@@H]2O[C@H](C)C[C@H](N(C)C)[C@H]2O)[C@](C)(OC)C[C@@H](C)C2=NC[C@H](COCc3ccc(F)cc3)N3C(=O)O[C@@]1(C)[C@H]3[C@H]2C [Example 71]", "measurementName": "MIC", "cmp": "=", "obsValue": 0.01}
{"molecule": "CC[C@H]1OC(=O)[C@H](C)C(=O)[C@H](C)[C@@H](O[C@@H]2O[C@H](C)C[C@H](N(C)C)[C@H]2O)[C@](C)(OC)C[C@@H](C)C2=N[C@H](COCc3cc(C)c4ccccc4n3)CN3C(=O)O[C@@]1(C)[C@H]3[C@H]2C [Example 83]", "measurementName": "MIC", "cmp": "=", "obsValue": 0.01}
{"molecule": "CC[C@H]1OC(=O)[C@H](C)C(=O)[C@H](C)[C@@H](O[C@@H]2O[C@H](C)C[C@H](N(C)C)[C@H]2O)[C@](C)(OC)C[C@@H](C)C2=NCC(COC(=O)c3cccc4[nH]ccc34)N3C(=O)O[C@@]1(C)[C@H]3[C@H]2C (stereo partly shown) [Example 144]", "measurementName": "MIC", "cmp": "≤", "obsValue": 0.005}
{"molecule": "CC[C@H]1OC(=O)[C@H](C)C(=O)[C@H](C)[C@@H](O[C@@H]2O[C@H](C)C[C@H](N(C)C)[C@H]2O)[C@](C)(OC)C[C@@H](C)C2=NC[C@H](Cc3ccc(NC(=O)OCc4ccccc4)cc3)N3C(=O)O[C@@]1(C)[C@H]3[C@H]2C [Example 68]", "measurementName": "MIC", "cmp": "=", "obsValue": 0.1}
{"molecule": "CC[C@H]1OC(=O)[C@H](C)C(=O)[C@H](C)[C@@H](O[C@@H]2O[C@H](C)C[C@H](N(C)C)[C@H]2O)[C@](C)(OC)C[C@@H](C)C2=NC3CN(CCc4ccc(NC(C)=O)cc4)CC3N3C(=O)O[C@@]1(C)[C@H]3[C@H]2C (stereo partly shown) [Example 122]", "measurementName": "MIC", "cmp": "=", "obsValue": 0.02}
{"molecule": "CC[C@H]1OC(=O)[C@H](C)C(=O)[C@H](C)[C@@H](O[C@@H]2O[C@H](C)C[C@H](N(C)C)[C@H]2O)[C@](C)(OC)C[C@@H](C)C2=N[C@@H]3COC[C@@H]3N3C(=O)O[C@@]1(C)[C@H]3[C@H]2C [Example 18]", "measurementName": "MIC", "cmp": "=", "obsValue": 0.05}
